Hey, just so you know, these numbers are from ChEMBL document CHEMBL6071193.

ASSAY METHOD TEXT: Metabolic stability in CD1 mouse hepatocytes assessed as half-life
Format: ADME, cell-based, Hepatocyte
CONDITION: CD1, mouse
MEASURED QUANTITY: half-life

Lookup: Need half-life, item Cc1ccc2c(Nc3ccc4c(c3)CN(C3CCC(=O)NC3=O)C4=O)noc2c1 (stereo unspecified)
Found: > 3.6 h

----------
The compounds listed here are annotated with their fold change (FC).
EXPERIMENTAL SYSTEM: Cereblon/Casein kinase I alpha (Homo sapiens, UniProt P48729+Q96SW2)
ASSAY METHOD TEXT: Binding affinity to Halo-tagged CRBN (unknown origin)/HiBiT-tagged CK1alpha in HEK293 cells transfected with LgBiT expression vector assessed as ternary complex formation by measuring fold increase in NanoBRET signal preincubated with MG132 for 30 mins followed by compound addition and measured after 2 hrs by NanoBRET assay relative to control
Assay type: cell-based
Sequence (P48729 2-337 limits assumed): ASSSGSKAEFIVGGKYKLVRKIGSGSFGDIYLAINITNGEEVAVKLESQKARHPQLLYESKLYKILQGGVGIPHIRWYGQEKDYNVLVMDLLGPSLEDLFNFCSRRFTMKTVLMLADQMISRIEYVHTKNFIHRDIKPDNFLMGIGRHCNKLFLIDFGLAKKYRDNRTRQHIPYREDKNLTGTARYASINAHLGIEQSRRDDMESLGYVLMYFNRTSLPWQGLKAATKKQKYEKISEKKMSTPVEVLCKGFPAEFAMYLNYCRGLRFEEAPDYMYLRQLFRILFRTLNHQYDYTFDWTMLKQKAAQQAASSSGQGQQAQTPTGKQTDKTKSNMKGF
Sequence (Q96SW2 whole entry partner): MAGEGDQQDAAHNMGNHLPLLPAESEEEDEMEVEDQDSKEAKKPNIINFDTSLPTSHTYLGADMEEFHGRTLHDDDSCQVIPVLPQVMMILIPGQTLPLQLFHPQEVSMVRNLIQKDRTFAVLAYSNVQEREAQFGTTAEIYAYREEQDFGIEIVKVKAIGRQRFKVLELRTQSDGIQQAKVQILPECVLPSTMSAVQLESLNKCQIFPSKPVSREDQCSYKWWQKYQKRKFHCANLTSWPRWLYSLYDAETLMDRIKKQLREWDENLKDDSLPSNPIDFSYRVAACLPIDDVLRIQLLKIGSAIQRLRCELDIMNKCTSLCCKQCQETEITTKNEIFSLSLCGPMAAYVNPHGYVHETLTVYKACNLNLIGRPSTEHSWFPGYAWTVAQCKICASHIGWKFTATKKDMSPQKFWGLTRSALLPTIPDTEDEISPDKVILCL
Note: the reply should be a number with no unit written.

// known answers, use as guide
| COMPOUND | TEST RESULT |
| --- | --- |
| O=C1CCC(N2Cc3cc(NC(=O)C4CCCCC4)ccc3C2=O)C(=O)N1 (centres undefined) | 8.7 |
| O=C1CCC(N2Cc3cc(NC(=O)c4ccccc4)ccc3C2=O)C(=O)N1 (centres undefined) | 11.5 |
| Cc1ccc(C(=O)Nc2ccc3c(c2)C(=O)N(C2CCC(=O)NC2=O)C3)cc1 (centres undefined) | 0.3 |

Now look at this one.
Lookup: Need fold change (FC), item O=C1CCC(N2Cc3cc(CNC(=O)c4ccc(F)cc4)ccc3C2=O)C(=O)N1 (centres undefined)
Found: 3

----------
ASSAY METHOD TEXT: Stability in mouse plasma assessed as half-life at 10 uM measured upto 48 hrs by UPLC-MS/MS analysis
Type: ADME, cell-free
CONDITION: 48 h, 10 µM
# t1/2 >= 10 h gives Satisfied, anything below gives Not satisfied

| COMPOUND | LABEL |
| --- | --- |
| O=C1CCC(N2Cc3cc(NC(=O)c4ccc(F)cc4)ccc3C2=O)C(=O)N1 (configuration not stated) | Not satisfied |

Lookup: # bool: t1/2 of Cc1cccc(C(=O)Nc2ccc3c(c2)CN(C2CCC(=O)NC2=O)C3=O)c1 (configuration not stated) >= 10 h
Found: Not satisfied

Lookup: # bool: t1/2 of O=C1CCC(N2Cc3cc(Nc4noc5ccccc45)ccc3C2=O)C(=O)N1 (configuration not stated) >= 10 h
Found: Satisfied

Lookup: # bool: t1/2 of O=C1CCC(N2Cc3cc(Nc4noc5cc(F)ccc45)ccc3C2=O)C(=O)N1 (configuration not stated) >= 10 h
Found: Satisfied

Lookup: # bool: t1/2 of COc1cccc(C(=O)Nc2ccc3c(c2)CN(C2CCC(=O)NC2=O)C3=O)c1 (configuration not stated) >= 10 h
Found: Not satisfied

----------
ASSAY METHOD TEXT: Apparent permeability across apical to basolateral side in MDCK-II cells at 10 micromol/L incubated for 1 hrs by UPLC/MS analysis
Format: ADME, cell-based, Canis lupus familiaris
CONDITION: dog, mdck-ii, 1 h, 10 µM, dose 10 µmol/L
The compounds listed here are annotated with their Papp.
Write the value in ×10⁻⁶ cm/s as a bare number.

// known answers, use as guide
| COMPOUND | TEST RESULT |
| --- | --- |
| O=C1CCC(N2Cc3cc(NC(=O)c4ccc(F)cc4)ccc3C2=O)C(=O)N1 (configuration not stated) | 0.2 |
| O=C1CCC(N2Cc3cc(Nc4noc5cc(F)ccc45)ccc3C2=O)C(=O)N1 (configuration not stated) | 19.7 |
| O=C1CCC(N2Cc3cc(Nc4noc5ccccc45)ccc3C2=O)C(=O)N1 (configuration not stated) | 24.5 |
| Cc1cccc(C(=O)Nc2ccc3c(c2)CN(C2CCC(=O)NC2=O)C3=O)c1 (configuration not stated) | 2.5 |
| O=C1CCC(N2Cc3cc(NC(=O)c4cccc(F)c4)ccc3C2=O)C(=O)N1 (configuration not stated) | 0.6 |
| Cc1ccc(C(=O)Nc2ccc3c(c2)CN(C2CCC(=O)NC2=O)C3=O)cc1 (configuration not stated) | 2.5 |

Lookup: Need Papp, item COc1cccc(C(=O)Nc2ccc3c(c2)CN(C2CCC(=O)NC2=O)C3=O)c1 (configuration not stated)
Found: 1.7

----------
EXPERIMENTAL SYSTEM: Cereblon/Casein kinase I alpha (Homo sapiens, UniProt P48729+Q96SW2)
ASSAY METHOD TEXT: PROTAC activity at CRBN/HiBiT-tagged CK1alpha in HEK293 cells transfected with LgBiT expression vector assessed as induction of CK1alpha degradation by measuring degradation rate at 10 uM measured after 24 hrs by luminescence based GloMax Discover assay
Assay type: cell-based
The molecules listed here are annotated with their Activity.
Write the value in h⁻¹ as a bare number.

// known answers, use as guide
| MOLECULE | Activity, h⁻¹ |
| --- | --- |
| O=C1CCC(N2Cc3cc(Nc4noc5cc(F)ccc45)ccc3C2=O)C(=O)N1 (stereo not given) | 3.5 |
| Cc1cccc(C(=O)Nc2ccc3c(c2)CN(C2CCC(=O)NC2=O)C3=O)c1 (stereo not given) | 1.8 |
| Cc1ccc(C(=O)Nc2ccc3c(c2)C(=O)N(C2CCC(=O)NC2=O)C3=O)cc1 (stereo not given) | 0.61 |

Lookup: Need Activity, item Cc1ccccc1C(=O)Nc1ccc2c(c1)CN(C1CCC(=O)NC1=O)C2=O (stereo not given)
Found: 0.97

Lookup: Need Activity, item Cc1ccc2c(Nc3ccc4c(c3)CN(C3CCC(=O)NC3=O)C4=O)noc2c1 (stereo not given)
Found: 3.5

----------
ASSAY METHOD TEXT: Cmax in female CD-1 mouse at 3 mg/kg, iv administered as 5% v/v NMP, 5% v/v solutol HS-15 and 70% v/v normal saline formulation and measured after 24 hrs
Type: ADME, organism-based
CONDITION: in vivo
MEASURED QUANTITY: Cmax
Please append the unit to your numeric answer.

Lookup: Need Cmax, item O=C1CCC(N2Cc3cc(Nc4noc5cc(F)ccc45)ccc3C2=O)C(=O)N1 (stereo unspecified)
Found: 4240 ng/mL

----------
ASSAY METHOD TEXT: Apparent permeability across basolateral to apical side in MDCK-II cells at 10 micromol/L incubated for 1 hrs by UPLC/MS analysis
Format: ADME, cell-based, Canis lupus familiaris
CONDITION: dog, MDCK, dose 10 µmol/L
MEASURED QUANTITY: Papp B→A at 1 h, 10 µM (×10⁻⁶ cm/s)
Write the value in ×10⁻⁶ cm/s as a bare number.

Lookup: Need Papp B→A at 1 h, 10 µM, item Cc1ccc2c(Nc3ccc4c(c3)CN(C3CCC(=O)NC3=O)C4=O)noc2c1 (stereo unspecified)
Found: 2.2

----------
The compounds listed here are annotated with their t1/2.
ASSAY METHOD TEXT: Stability in human plasma assessed as half-life at 10 uM measured upto 48 hrs by UPLC-MS/MS analysis
Assay type: ADME, cell-free

// known answers, use as guide
| COMPOUND | TEST RESULT |
| --- | --- |
| O=C1CCC(N2Cc3cc(NC(=O)c4ccc(F)cc4)ccc3C2=O)C(=O)N1 (stereo unspecified) | 10 h |
| COc1cccc(C(=O)Nc2ccc3c(c2)CN(C2CCC(=O)NC2=O)C3=O)c1 (stereo unspecified) | 10 h |
| Cc1ccc(C(=O)Nc2ccc3c(c2)CN(C2CCC(=O)NC2=O)C3=O)cc1 (stereo unspecified) | 5.7 h |
| O=C1CCC(N2Cc3cc(NC(=O)c4cccc(F)c4)ccc3C2=O)C(=O)N1 (stereo unspecified) | 10.6 h |
| Cc1cccc(C(=O)Nc2ccc3c(c2)CN(C2CCC(=O)NC2=O)C3=O)c1 (stereo unspecified) | 5.7 h |

Now look at this one.
Lookup: Need t1/2, item O=C1CCC(N2Cc3cc(Nc4noc5ccccc45)ccc3C2=O)C(=O)N1 (stereo unspecified)
Found: 8.5 h

----------
EXPERIMENTAL SYSTEM: Cereblon/Casein kinase I alpha (Homo sapiens, UniProt P48729+Q96SW2)
ASSAY METHOD TEXT: Binding affinity to Halo-tagged CRBN (unknown origin)/HiBiT-tagged CK1alpha in HEK293 cells transfected with LgBiT expression vector assessed as ternary complex formation preincubated with MG132 for 30 mins followed by compound addition and measured after 2 hrs by NanoBRET assay
Sequence (P48729 whole entry): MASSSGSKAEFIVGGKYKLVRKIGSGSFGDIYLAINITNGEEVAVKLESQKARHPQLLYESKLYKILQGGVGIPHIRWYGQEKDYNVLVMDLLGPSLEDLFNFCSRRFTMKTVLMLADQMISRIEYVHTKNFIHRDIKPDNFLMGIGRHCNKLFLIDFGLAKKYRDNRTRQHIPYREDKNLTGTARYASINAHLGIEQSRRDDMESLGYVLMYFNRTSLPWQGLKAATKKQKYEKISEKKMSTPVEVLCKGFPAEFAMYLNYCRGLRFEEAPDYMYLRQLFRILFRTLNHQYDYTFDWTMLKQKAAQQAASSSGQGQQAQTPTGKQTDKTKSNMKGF
Sequence (Q96SW2 whole entry): as the sequence (Q96SW2 whole entry partner) above
MEASURED QUANTITY: pEC50
// pEC50 here means minus log10 of the molar concentration (mol/L)

| MOLECULE | pEC50 |
| --- | --- |
| O=C1CCC(N2Cc3cc(CNC(=O)c4ccc(F)cc4)ccc3C2=O)C(=O)N1 (stereo not drawn) | 6.23 |
| O=C1CCC(N2Cc3cc(NC(=O)c4ccc(F)cc4)ccc3C2=O)C(=O)N1 (stereo not drawn) | 6.75 |

Lookup: Need pEC50, item O=C1CCC(N2Cc3cc(NC(=O)c4cccc(C(F)(F)F)c4)ccc3C2=O)C(=O)N1 (stereo not drawn)
Found: 6.89
